assay_protocol: CCTE_Shafer_MEA_dev_correlation_coefficient_mean: CCTE's Neural Network Formation Assay for Mean Correlation Coefficient, Shafer Lab (AID 2284093)
Protocol: CCTE_Shafer_MEA_dev assay is conducted using Axion Biosystems 48 well microelectrode array (MEA) plates and Maestro recording system. Each well of the MEA plate contains a grid of 16 microelectrodes embedded in the culture surface. Electrically active cells, such as neurons, can be cultured over the electrodes, and electrical activity in these cells can be recorded extracellularly. […]
Active and inactive are the calls of the source. The calls were made as follows: active = hit-call score of the fitted dose curve at least 0.9, where 1 is the maximum; inactive = score below 0.9.
Possible outcomes: 1 (yes) for active, 0 (no) for inactive

# compound, group
rows = [
    ("OCC(F)(F)OC(F)(F)C(F)(F)OC(F)(F)CO", "0 (no)"),
    ("c1cc2c3c(cccc3c1)CC2", "0 (no)"),
    ("CCCCC(CC)COP(=O)(Oc1ccccc1)Oc1ccccc1 (configuration not stated)", "0 (no)"),
    ("O=C(O)C(F)(F)OC(F)(F)C(F)(F)OC(F)(F)F", "1 (yes)"),
    ("OCC(F)(F)OC(F)(F)C(F)(F)OC(F)(F)C(F)(F)OC(F)(F)CO", "0 (no)"),
    ("O=C(O)C(F)(F)OC(F)(F)C(F)(F)OC(F)(F)C(=O)O", "0 (no)"),
    ("c1ccc(OP(Oc2ccccc2)Oc2ccccc2)cc1", "0 (no)"),
    ("O=S(=O)(c1ccc(O)cc1)c1ccc(O)cc1", "0 (no)"),
    ("CO/N=C(/C(=O)OC)c1ccccc1COc1ccccc1C", "1 (yes)"),
    ("CCCCC(CC)COC(=O)c1c(Br)c(Br)c(Br)c(Br)c1C(=O)OCC(CC)CCCC (configuration not stated)", "0 (no)"),
    ("OCC(F)(F)OC(F)(F)C(F)(F)OC(F)(F)C(F)(F)OC(F)(F)F", "0 (no)"),
    ("C=CC(=O)OCC(F)(F)C(F)F", "1 (yes)"),
]

* * *

assay_protocol: Tanguay_ZF_120hpf_ANY: Oregon State University Tanguay Lab 120 Hour Post-fertilization zebrafish Assay for Any Mortality and Malformation (AID 2284404)
Procedure: Tanguay_ZF_120hpf is a whole embryo, multiplexed endpoint assay using zebrafish larvae exposed for 120 hours post fertilization on a 96-well plate.Tanguay_ZF_120hpf_ANY is one of one assay component(s) measured or calculated from the Tanguay_ZF_120hpf assay. […] This assay endpoint, Tanguay_ZF_120hpf_ANY, was analyzed in the positive analysis fitting direction relative to DMSO as the negative control and baseline of activity. […]
Active and inactive are the calls of the source. The calls were made as follows: active = hit-call score of the fitted dose curve at least 0.9, where 1 is the maximum; inactive = score below 0.9.
Outcome codes: active, inactive

# compound, group
records = [
    ("FC(F)(F)C(F)(C(F)(F)F)C(F)(F)C(F)(F)CC1CO1 (configuration not stated)", "inactive"),
    ("NC(=O)C(F)(F)C(F)(F)F", "inactive"),
    ("C=CC(=O)OCC(F)(F)C(F)F", "active"),
    ("O=C(O)C(F)(F)OC(F)(F)C(F)(F)OC(F)(F)F", "inactive"),
    ("O=C(O)C(F)(OC(F)(F)C(F)(F)C(F)(F)F)C(F)(F)F (configuration not stated)", "inactive"),
    ("O=C(O)C(F)(F)C(F)(F)C(=O)O", "inactive"),
    ("CC(O)C(F)(F)C(F)(F)F (configuration not stated)", "inactive"),
]
